readout_label: melting point

C=C[C@]1(C)C[C@@H](OC(=O)CNc2nc(Cl)nc3c2cnn3-c2cc(F)ccc2F)[C@]2(C)[C@H](C)CC[C@]3(CCC(=O)[C@H]32)[C@@H](C)[C@@H]1O [Compound 21b] ... 121 to 125 °C
C=C[C@]1(C)C[C@@H](OC(=O)CSc2ccc(Nc3nc(Cl)nc4c3cnn4-c3ccc(F)cc3F)cc2)[C@]2(C)[C@H](C)CC[C@]3(CCC(=O)[C@H]32)[C@@H](C)[C@@H]1O [Compound 20c] ... 132 to 134 °C
C=C[C@]1(C)C[C@@H](OC(=O)CSc2ccc(Nc3nc(Cl)nc4c3cnn4-c3ccc(OC(F)(F)F)cc3)cc2)[C@]2(C)[C@H](C)CC[C@]3(CCC(=O)[C@H]32)[C@@H](C)[C@@H]1O [Compound 23c] ... 144 to 147 °C

The compound listed as C=C[C@]1(C)C[C@@H](OC(=O)CNc2nc(Cl)nc3c2cnn3-c2cc(C)cc(C)c2)[C@]2(C)[C@H](C)CC[C@]3(CCC(=O)[C@H]32)[C@@H](C)[C@@H]1O [Compound 15b] shows melting point equal to 95 to 100 °C

Note to self: melting point recorded for C=C[C@]1(C)C[C@@H](OC(=O)CSc2ccc(Nc3nc(Cl)nc4c3cnn4-c3ccc(C)c(C)c3)cc2)[C@]2(C)[C@H](C)CC[C@]3(CCC(=O)[C@H]32)[C@@H](C)[C@@H]1O [Compound 14c] was 103 to 105 °C

Summary for this compound, C=C[C@]1(C)C[C@@H](OC(=O)CSc2ccc(Nc3nc(Cl)nc4c3cnn4-c3cccc([N+](=O)[O-])c3)cc2)[C@]2(C)[C@H](C)CC[C@]3(CCC(=O)[C@H]32)[C@@H](C)[C@@H]1O [Compound 27c] : melting point is 137 to 139 °C

C=C[C@]1(C)C[C@@H](OC(=O)CNc2nc(Cl)nc3c2cnn3-c2cccc(C)c2)[C@]2(C)[C@H](C)CC[C@]3(CCC(=O)[C@H]32)[C@@H](C)[C@@H]1O [Compound 12b] yielded melting point of 97 to 99 °C

Note to self: melting point recorded for C=C[C@]1(C)C[C@@H](OC(=O)CSc2ccc(Nc3nc(Cl)nc4c3cnn4-c3ccccc3F)cc2)[C@]2(C)[C@H](C)CC[C@]3(CCC(=O)[C@H]32)[C@@H](C)[C@@H]1O [Compound 18c] was 123 to 127 °C

// C=C[C@]1(C)C[C@@H](OC(=O)CSc2ccc(Nc3nc(Cl)nc4c3cnn4-c3cccc(Cl)c3)cc2)[C@]2(C)[C@H](C)CC[C@]3(CCC(=O)[C@H]32)[C@@H](C)[C@@H]1O [Compound 24c] : melting point value = 121 to 124 °C

Entry C=C[C@]1(C)C[C@@H](OC(=O)CSc2ccc(Nc3nc(Cl)nc4c3cnn4-c3cc(F)ccc3F)cc2)[C@]2(C)[C@H](C)CC[C@]3(CCC(=O)[C@H]32)[C@@H](C)[C@@H]1O [Compound 21c] , melting point reported as 115 to 118 °C

---

# System: S. aureus AD3
# method: MIC/MBC by broth dilution (CLSI)
# Assay type: cell-based
# conditions: Staphylococcus aureus, 24 h; S. aureus AD3 (clinical strain)
MIC values for the compounds below.
Just the number please, in µg/mL, no unit attached.

C=C[C@]1(C)C[C@@H](OC(=O)CSc2ccc(Nc3nc(Cl)nc4c3cnn4-c3ccc(C)cc3)cc2)[C@]2(C)[C@H](C)CC[C@]3(CCC(=O)[C@H]32)[C@@H](C)[C@@H]1O [Compound 13c] ... 4
C=CC1(C)CC(OC(=O)CSc2ccc(N)cc2)C2(C)C(C)CCC3(CCC(=O)C32)C(C)C1O (stereo not shown) ... 0.0015
C=C[C@]1(C)C[C@@H](OC(=O)CNc2nc(Cl)nc3c2cnn3-c2ccc(F)c(F)c2)[C@]2(C)[C@H](C)CC[C@]3(CCC(=O)[C@H]32)[C@@H](C)[C@@H]1O [Compound 22b] ... 8

Consider the additional compound presented here.
So, C=C[C@]1(C)C[C@@H](OC(=O)CNc2nc(Cl)nc3c2cnn3-c2ccc(F)cc2)[C@]2(C)[C@H](C)CC[C@]3(CCC(=O)[C@H]32)[C@@H](C)[C@@H]1O [Compound 19b] ? Its MIC was 8

---

# Tested on: MRSA ATCC 43300
# method: Constant concentration time–kill curves
# Format: cell-based, Staphylococcus aureus
# conditions: 2 × MIC, 24 h incubation
# Lookup of reported reduction of MRSA in time–kill assay keyed by entry
Write your answer as a measured quantity: the number, then the unit.

Below, each entry is followed by its recorded reduction of MRSA in time–kill assay result.
C=C[C@]1(C)C[C@@H](OC(=O)CSc2ccc(Nc3nc(Cl)nc4c3cnn4-c3ccc(F)cc3)cc2)[C@]2(C)[C@H](C)CC[C@]3(CCC(=O)[C@H]32)[C@@H](C)[C@@H]1O [Compound 19c] ... −3.57 log10 CFU/mL
C=C[C@]1(C)C[C@@H](OC(=O)CSc2ccc(Nc3nc(Cl)nc4c3cnn4-c3cccc(C)c3)cc2)[C@]2(C)[C@H](C)CC[C@]3(CCC(=O)[C@H]32)[C@@H](C)[C@@H]1O [Compound 12c] ... −4.51 log10 CFU/mL
C=C[C@]1(C)C[C@@H](OC(=O)CSc2ccc(Nc3nc(Cl)nc4c3cnn4-c3ccc(F)c(F)c3)cc2)[C@]2(C)[C@H](C)CC[C@]3(CCC(=O)[C@H]32)[C@@H](C)[C@@H]1O [Compound 22c] ... −4.47 log10 CFU/mL

Please turn your attention to the following entry.
// field: reduction of MRSA in time–kill assay; key: C=C[C@]1(C)C[C@@H](OC(=O)CSCCN(CC)CC)[C@]2(C)[C@H](C)CC[C@]3(CCC(=O)[C@H]32)[C@@H](C)[C@@H]1O [Tiamulin, tiamulin, reference compound] ; value = −3.78 log10 CFU/mL

---

readout_label: melting point

A selection of reference data follows.
C=C[C@]1(C)C[C@@H](OC(=O)CSc2ccc(Nc3nc(Cl)nc4c3cnn4-c3ccc(F)cc3)cc2)[C@]2(C)[C@H](C)CC[C@]3(CCC(=O)[C@H]32)[C@@H](C)[C@@H]1O [Compound 19c] ... 141 to 144 °C
C=C[C@]1(C)C[C@@H](OC(=O)CNc2nc(Cl)nc3c2cnn3-c2ccc(CC)cc2)[C@]2(C)[C@H](C)CC[C@]3(CCC(=O)[C@H]32)[C@@H](C)[C@@H]1O [Compound 16b] ... 101 to 103 °C
C=C[C@]1(C)C[C@@H](OC(=O)CSc2ccc(Nc3nc(Cl)nc4c3cnn4-c3cc(C)cc(C)c3)cc2)[C@]2(C)[C@H](C)CC[C@]3(CCC(=O)[C@H]32)[C@@H](C)[C@@H]1O [Compound 15c] ... 92 to 95 °C
C=C[C@]1(C)C[C@@H](OC(=O)CNc2nc(Cl)nc3c2cnn3-c2ccc(F)cc2F)[C@]2(C)[C@H](C)CC[C@]3(CCC(=O)[C@H]32)[C@@H](C)[C@@H]1O [Compound 20b] ... 123 to 125 °C

Now, please, on to the next compound.
Just so you know, measured melting point for C=C[C@]1(C)C[C@@H](OC(=O)CNc2nc(Cl)nc3c2cnn3-c2cccc([N+](=O)[O-])c2)[C@]2(C)[C@H](C)CC[C@]3(CCC(=O)[C@H]32)[C@@H](C)[C@@H]1O [Compound 27b] came out at 131 to 135 °C

---

In this section we review reported melting point values for a set of compounds.

// recorded melting point for C=C[C@]1(C)C[C@@H](OC(=O)CSc2ccc(Nc3nc(Cl)nc4c3cnn4-c3cc(Cl)cc(Cl)c3)cc2)[C@]2(C)[C@H](C)CC[C@]3(CCC(=O)[C@H]32)[C@@H](C)[C@@H]1O [Compound 26c] : 137 to 139 °C

The compound listed as C=C[C@]1(C)C[C@@H](OC(=O)CNc2nc(Cl)nc3c2cnn3-c2ccc(F)c(F)c2)[C@]2(C)[C@H](C)CC[C@]3(CCC(=O)[C@H]32)[C@@H](C)[C@@H]1O [Compound 22b] has a reported melting point of 130 to 132 °C

Per the record, C=C[C@]1(C)C[C@@H](OC(=O)CSc2ccc(Nc3nc(Cl)nc4c3cnn4-c3ccc(C)cc3)cc2)[C@]2(C)[C@H](C)CC[C@]3(CCC(=O)[C@H]32)[C@@H](C)[C@@H]1O [Compound 13c] has melting point of 101 to 105 °C

The recorded melting point for C=C[C@]1(C)C[C@@H](OC(=O)CSc2ccc(Nc3nc(Cl)nc4c3cnn4-c3ccc4ccccc4c3)cc2)[C@]2(C)[C@H](C)CC[C@]3(CCC(=O)[C@H]32)[C@@H](C)[C@@H]1O [Compound 28c] is 115 to 118 °C

Recorded result, C=C[C@]1(C)C[C@@H](OC(=O)CNc2nc(Cl)nc3c2cnn3-c2cccc(Cl)c2)[C@]2(C)[C@H](C)CC[C@]3(CCC(=O)[C@H]32)[C@@H](C)[C@@H]1O [Compound 24b] , melting point: 117 to 119 °C

# compound C=C[C@]1(C)C[C@@H](OC(=O)CNc2nc(Cl)nc3c2cnn3-c2ccc3ccccc3c2)[C@]2(C)[C@H](C)CC[C@]3(CCC(=O)[C@H]32)[C@@H](C)[C@@H]1O [Compound 28b] ; its melting point = 123 to 125 °C

Data point: C=C[C@]1(C)C[C@@H](OC(=O)CSc2ccc(Nc3nc(Cl)nc4c3cnn4-c3cccc(OC)c3)cc2)[C@]2(C)[C@H](C)CC[C@]3(CCC(=O)[C@H]32)[C@@H](C)[C@@H]1O [Compound 17c] ; melting point = 97 to 102 °C

Item: C=C[C@]1(C)C[C@@H](OC(=O)CNc2nc(Cl)nc3c2cnn3-c2ccccc2F)[C@]2(C)[C@H](C)CC[C@]3(CCC(=O)[C@H]32)[C@@H](C)[C@@H]1O [Compound 18b] | melting point: 107 to 110 °C

compound C=C[C@]1(C)C[C@@H](OC(=O)CNc2nc(Cl)nc3c2cnn3-c2ccc(Cl)cc2)[C@]2(C)[C@H](C)CC[C@]3(CCC(=O)[C@H]32)[C@@H](C)[C@@H]1O [Compound 25b] , melting point observed: 107 to 111 °C

All figures here come from paper PMC10180054.
